B1: TRIM43 (parent)
chain: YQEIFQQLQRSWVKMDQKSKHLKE

- Variants of: B1
- Measurement notes: protein stability index of a GFP-peptide fusion (GPS, HEK-293T) (PSI 1-6); higher = more stable;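 also: lentivirally expressed fusions sorted by FACS into six bins by GFP to DsRed ratio, PSI derived from sequencing read proportions per bin multiplied by bin number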
- Condition set: c terminus: a fixed tail appended
Each entry gets Not satisfied if its protein stability index stays under 2, and Satisfied if its protein stability index is 2 or above.

Biosequence	Assigned category
YQEIFQQLQRSWVKIDQKSKHLKE [M15I]	Not satisfied
YQEIFQQLQRSWVKMDVKSKHLKE [Q17V]	Satisfied
YQEIFSQLQRSWVKMDQKSKHLKE [Q6S]	Satisfied
YQEIFQQLQRSWVKMDQKSKHSKE [L22S]	Satisfied
YQEIFQQLQSSWVKMDQKSKHLKE [R10S]	Satisfied
YQEIFQQLQRSWVKMDQKEKHLKE [S19E]	Satisfied
YQEIFQQLQRSWVSMDQKSKHLKE [K14S]	Satisfied
QQEIFQQLQRSWVKMDQKSKHLKE [Y1Q]	Satisfied
YQVIFQQLQRSWVKMDQKSKHLKE [E3V]	Not satisfied
YQEIFQDLQRSWVKMDQKSKHLKE [Q7D]	Satisfied
YQEWFQQLQRSWVKMDQKSKHLKE [I4W]	Satisfied
YQEIFQQLQRSWVWMDQKSKHLKE [K14W]	Satisfied
YQEIFEQLQRSWVKMDQKSKHLKE [Q6E]	Satisfied
YQEIFQHLQRSWVKMDQKSKHLKE [Q7H]	Satisfied
YQEIFQQLQRSWKKMDQKSKHLKE [V13K]	Satisfied
YGEIFQQLQRSWVKMDQKSKHLKE [Q2G]	Not satisfied
YQEIFQQLQRSWVKMDQKSSHLKE [K20S]	Not satisfied
YQEIFQQLQRSAVKMDQKSKHLKE [W12A]	Satisfied
YQEIFQNLQRSWVKMDQKSKHLKE [Q7N]	Satisfied
YQEIFQQMQRSWVKMDQKSKHLKE [L8M]	Satisfied
YQEIFQQLQHSWVKMDQKSKHLKE [R10H]	Satisfied
YQEIFQQLQRSWVKMDQRSKHLKE [K18R]	Satisfied
YQEIFQQLQRSWVKMDQKSKHLKR [E24R]	Not satisfied
YQEIFQQRQRSWVKMDQKSKHLKE [L8R]	Satisfied
YQEIFQQLQRSWVKMDIKSKHLKE [Q17I]	Not satisfied
YQEIFQQLQRSWVKMDQKSKVLKE [H21V]	Not satisfied
YQEIFQQLQRSWVKMDQKSKHFKE [L22F]	Not satisfied
YQEIFQQLQRSWVKMDQKSCHLKE [K20C]	Not satisfied
YQEIFQQLQRSWHKMDQKSKHLKE [V13H]	Satisfied
YQEIFQQLQRSDVKMDQKSKHLKE [W12D]	Satisfied
YQEDFQQLQRSWVKMDQKSKHLKE [I4D]	Not satisfied
YQEIFQQLQRSRVKMDQKSKHLKE [W12R]	Satisfied
YQEIFQQLQRSWVKDDQKSKHLKE [M15D]	Satisfied
YQEIFQQLQRSWRKMDQKSKHLKE [V13R]	Not satisfied
YQEYFQQLQRSWVKMDQKSKHLKE [I4Y]	Not satisfied
YQEIFNQLQRSWVKMDQKSKHLKE [Q6N]	Satisfied
YQEIFQQLQRSWVKMDQKSKLLKE [H21L]	Not satisfied
YQEIFQSLQRSWVKMDQKSKHLKE [Q7S]	Satisfied
YQEIFQQLQRSWVDMDQKSKHLKE [K14D]	Satisfied
YQEIFQALQRSWVKMDQKSKHLKE [Q7A]	Not satisfied
YQEIFQQLQRSWVKMDQKSRHLKE [K20R]	Not satisfied
